Target: T1, Extracellular domain (ECD) of the canine IL-4 receptor alpha-AviTag-His Tag (canine)
T1 construct: expressed in CHO cells; also called canine IL-4RA; canine IL4Ra
T1 chain: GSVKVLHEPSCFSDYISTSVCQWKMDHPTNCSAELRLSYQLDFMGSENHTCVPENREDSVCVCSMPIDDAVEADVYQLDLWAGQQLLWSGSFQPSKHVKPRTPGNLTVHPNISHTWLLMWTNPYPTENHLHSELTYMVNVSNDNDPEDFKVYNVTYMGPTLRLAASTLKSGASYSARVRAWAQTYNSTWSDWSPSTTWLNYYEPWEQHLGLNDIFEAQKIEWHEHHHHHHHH
Test: SPR, IgG captured via anti-dog Fc
Measured koff, listed per entry.

>  <BINDER>
FJP05A03-H + 21188-L (antibody, V domains shown) VH: EVQLVESGGDLVKPGGSLRLSCVASGLPFRDYAMAWVRQAPGKGLQWLSLISGSGGKTYYADAVKGRFTISRDNAKNTLYLQMNSLRAEDTAVYYCAVDRLTKTIRPQYYGLWVWGQGTLVTVSS VL: DIVMTQTPLSLSVSPGETASISCRSSQSLTYSIGYNYLDWYMQKPGQSPQGLIYLGSKRASGVSDRFSGSGSGADFTLKISRVEADDAGVYYCMQGLQSPLGFGQGTKLEIKR

>  <UNIT ABBREV>
s⁻¹

>  <koff>
0.000105

$$$$
>  <BINDER>
FJP07H09-H + 21188-L (antibody, V domains shown) VH: EVQLVESGGDLVKPGGSLRLSCVASGFTFRDYAMDWVRQAPGKGLQWLSLISGSGGKTYYADAVKGRFTISRDNAKNTLYLQMNSLRAEDTAVYYCAVDRLTKTIRPQYYGLWSWGQGTLVTVSS VL: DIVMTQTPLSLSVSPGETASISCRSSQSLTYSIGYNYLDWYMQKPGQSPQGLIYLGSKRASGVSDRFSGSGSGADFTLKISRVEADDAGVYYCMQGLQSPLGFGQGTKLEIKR

>  <UNIT ABBREV>
s⁻¹

>  <koff>
0.000253

$$$$
>  <BINDER>
FJP06D01-H + 21188-L (antibody, V domains shown) VH: EVQLVESGGDLVKPGGSLRLSCVASGFPFRDYAMDWVRQAPGKGLQWLSLISGSGGKTYYADAVKGRFTISRDNAKNTLYLQMNSLRAEDTAVYYCAVDRLTKTIRPQYYGLWVWGQGTLVTVSS VL: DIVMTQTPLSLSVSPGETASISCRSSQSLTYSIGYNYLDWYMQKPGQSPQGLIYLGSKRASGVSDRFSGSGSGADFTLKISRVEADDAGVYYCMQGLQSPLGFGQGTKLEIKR

>  <UNIT ABBREV>
s⁻¹

>  <koff>
0.000208

$$$$
>  <BINDER>
Fjmix_PS-H + 21188-L (antibody, V domains shown) VH: EVQLVESGGDLVKPGGSLRLSCVASGFPFRDYAMDWVRQAPGKGLQWLSLISGSGGKTYYADAVKGRFTISRDNAKNTLYLQMNSLRAEDTAVYYCAVDRLTKTIRPQYYGLWSWGQGTLVTVSS VL: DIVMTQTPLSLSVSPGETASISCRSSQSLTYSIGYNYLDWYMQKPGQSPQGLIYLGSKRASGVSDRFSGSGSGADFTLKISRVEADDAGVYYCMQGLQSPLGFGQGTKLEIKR

>  <UNIT ABBREV>
s⁻¹

>  <koff>
0.000206

$$$$
